- Tested on: eclipta prostrata
- Method Description: Herbicidal activity, pot culture method (primary and secondary screening test)
- Format: in vivo
- Experimental Context: primary screening, pot culture, 150 g/ha, sprayed at 3-leaf stage, result 15 days later
For each entry below, report its herbicidal activity inhibition ratio (%), Eclipta prostrata value.
Give bare numbers, in %.

Answered examples (3):
Problem: Which herbicidal activity inhibition ratio (%), Eclipta prostrata reading was recorded for the compound CCCn1c(=O)n(-c2ccccc2C)c(=O)c2cc(C(=O)C3=C(O)CC(C)(C)CC3=O)ccc21 [Compound 72] ?
Solution: 60

Problem: Now consider CC(C)c1cccc(C(C)C)c1-n1c(=O)c2cc(C(=O)C3=C(O)CCCC3=O)ccc2n(C)c1=O [Compound 46] .
Solution: 70

Problem: Same thing, different compound: Cc1cccc(C)c1-n1c(=O)c2cc(C(=O)C3=C(O)CCCC3=O)ccc2n(C)c1=O [Compound 34]
Solution: 80

Hey, quick one: what's herbicidal activity inhibition ratio (%), Eclipta prostrata for each of these?
1. CC(C)c1ccccc1-n1c(=O)c2cc(C(=O)C3=C(O)CCCC3=O)ccc2n(C)c1=O [Compound 65]
2. Cc1ccccc1-n1c(=O)c2cc(C(=O)C3=C(O)CCCC3=O)ccc2n(C)c1=O [Compound 20]
3. Cc1cccc(-n2c(=O)c3cc(C(=O)C4=C(O)CC(C)CC4=O)ccc3n(C)c2=O)c1 (stereo not drawn) [Compound 19]
4. Cn1c(=O)n(-c2cc(Cl)cc(Cl)c2)c(=O)c2cc(C(=O)C3=C(O)CCCC3=O)ccc21 [Compound 7]

Solution:
1. 80
2. 95
3. 85
4. 60

Give me herbicidal activity inhibition ratio (%), Eclipta prostrata for each of these compounds, listed below.
1. Cn1c(=O)n(-c2cccc(F)c2)c(=O)c2cc(C(=O)C3=C(O)CC(C)(C)CC3=O)ccc21 [Compound 11]
2. Cc1cccc(Cl)c1-n1c(=O)c2cc(C(=O)C3=C(O)CC(C)(C)CC3=O)ccc2n(C)c1=O [Compound 96]
3. Cc1ccccc1-n1c(=O)c2cc(C(=O)C3=C(O)CCCC3=O)ccc2n(C)c1=S [Compound 86]
4. Cn1c(=O)n(-c2cc(C(F)(F)F)ccc2Cl)c(=O)c2cc(C(=O)C3=C(O)CCCC3=O)ccc21 [Compound 60]

Solution:
1: 85; 2: 83; 3: 30; 4: 0

Please state herbicidal activity inhibition ratio (%), Eclipta prostrata for every compound in the list that follows.
1. CC1CC(=O)C(C(=O)c2ccc3c(c2)c(=O)n(-c2ccccc2)c(=O)n3C)=C(O)C1 (stereo not drawn) [Compound 42]
2. COc1ccccc1-n1c(=O)c2c(C)c(C(=O)C3=C(O)CCCC3=O)ccc2n(C)c1=O [Compound 88]
3. CC(C)c1ccccc1-n1c(=O)c2cc(C(=O)C3=C(O)CCCC3=O)ccc2n(C)c1=O [Compound 97]
4. Cn1c(=O)n(-c2cccc3ccccc23)c(=O)c2cc(C(=O)C3=C(O)CCCC3=O)ccc21 [Compound 44]
5. Cc1ccc(-n2c(=O)c3cc(C(=O)C4=C(O)CC(C)CC4=O)ccc3n(C)c2=O)cc1 (stereo not drawn) [Compound 16]
6. CC(C)c1ccc(-n2c(=O)c3cc(C(=O)C4=C(O)CCCC4=O)ccc3n(C)c2=O)cc1 [Compound 36]
7. Cc1cccc(C)c1-n1c(=O)c2cc(C(=O)C3=C(O)C(C)(C)CCC3=O)ccc2n(C)c1=O [Compound 54]
8. COc1ccccc1-n1c(=O)c2cc(C(=O)C3=C(O)CC(C)(C)CC3=O)ccc2n(C)c1=O [Compound 48]

Solution:
1. 83
2. 100
3. 90
4. 0
5. 75
6. 0
7. 80
8. 85

Required: herbicidal activity inhibition ratio (%), Eclipta prostrata, one value per compound below.
1. Cn1c(=O)n(-c2ccc(Br)cc2)c(=O)c2cc(C(=O)C3=C(O)CC(C)(C)CC3=O)ccc21 [Compound 26]
2. Cc1cccc(C)c1-n1c(=O)c2cc(C(=O)C3=C(O)CC(C)(C)CC3=O)ccc2n(C)c1=O [Compound 98]

Solution:
88
88

Recorded values, source patent US9771334B2.
